Where do the numbers come from? From ChEMBL document CHEMBL3612031.

Kindly supply the reported EC50 values for the records listed here.
- Test system: 8505C
- EXPERIMENTAL PROTOCOL: Cytotoxicity against human 8505C cells assessed as cell survival after 96 hrs by SRB assay
- Type: functional, cell-based

Fill in the blank: the reported EC50 of CC1(C)CC[C@]2(C(=O)O)CC[C@]3(C)C(=CC[C@@H]4[C@@]5(C)CC[C@H](O)C(C)(C)[C@@H]5CC[C@]43C)[C@@H]2C1 is ____.
> 30 µM

Fill in the blank: the reported EC50 of COC(=O)[C@@]1(C)CC[C@]2(C)CC[C@]3(C)C(=CC(=O)[C@@H]4[C@@]5(C)CC[C@H](O)C(C)(C)[C@@H]5CC[C@]43C)[C@@H]2C1 is ____.
> 30 µM

Fill in the blank: the reported EC50 of C=C1C[C@]2(C)[C@H]3CC=C4[C@@H]5CC(C)(C)CC[C@]5(C(=O)OC)CC[C@@]4(C)[C@]3(C)CC[C@H]2C(C)(C)C1=O is ____.
> 30 µM

---

- Tested on: 8505C
- EXPERIMENTAL PROTOCOL: Cytotoxicity against human 8505C cells assessed as cell survival after 96 hrs by SRB assay
- Type: functional, cell-based
Kindly supply the reported EC50 values for the records listed here.
Expressed in µM, but write only the number.

Fill in the blank: the reported EC50 of COC(=O)[C@@]1(C)CC[C@]2(C)CC[C@]3(C)C(=CC(=O)[C@@H]4[C@@]5(C)CCC(=O)C(C)(C)[C@@H]5CC[C@]43C)[C@@H]2C1 is ____.
20.5

Fill in the blank: the reported EC50 of CC(=O)[C@@H]1CC[C@]2(C(=O)O)CC[C@]3(C)[C@H](CC[C@@H]4[C@@]5(C)CC[C@H](O)C(C)(C)[C@@H]5CC[C@]43C)[C@@H]12 is ____.
1.57

Fill in the blank: the reported EC50 of C=C1C[C@]2(C)[C@H]3CC=C4[C@@H]5[C@@H](C)[C@H](C)CC[C@]5(C(=O)OC)CC[C@@]4(C)[C@]3(C)CC[C@H]2C(C)(C)C1=O is ____.
6.1

---

- Tested on: MCF7
- EXPERIMENTAL PROTOCOL: Cytotoxicity against human MCF7 cells assessed as cell survival after 96 hrs by SRB assay
- Type: functional, cell-based
Active and inactive are the calls of the source. The rule behind the calls is not given here.
OBSERVABLE: Activity

COC(=O)[C@]12CC[C@@H](C)[C@H](C)[C@H]1C1=CC(=O)[C@@H]3[C@@]4(C)CC(Br)(Br)C(=O)C(C)(C)[C@@H]4CC[C@@]3(C)[C@]1(C)CC2 = Active
COC(=O)[C@]12CC[C@@H](C)[C@H](C)[C@H]1C1=CC[C@@H]3[C@@]4(C)CC(Br)(Br)C(=O)C(C)(C)[C@@H]4CC[C@@]3(C)[C@]1(C)CC2 = Active
COC(=O)[C@]12CC[C@@H](C)[C@H](C)[C@H]1C1=CC[C@@H]3[C@@]4(C)C[C@H](C)C(=O)C(C)(C)[C@@H]4CC[C@@]3(C)[C@]1(C)CC2 = inactive
C=C1C[C@]2(C)[C@H]3C(=O)C=C4[C@@H]5C[C@@](C)(C(=O)OC)CC[C@]5(C)CC[C@@]4(C)[C@]3(C)CC[C@H]2C(C)(C)[C@H]1O = inactive

Now examine the next entry.
Fill in the blank: the reported Activity of COC(=O)[C@]12CCC(C)(C)C[C@H]1C1=CC(=O)[C@@H]3[C@@]4(C)CC(Br)(Br)C(=O)C(C)(C)[C@@H]4CC[C@@]3(C)[C@]1(C)CC2 is ____.
Active
